Test system: SK-MEL-28 melanoma
Assay: NCI tumour cell line growth inhibition, 48 h
Recorded Metric: TGI

CCOC(=O)c1c(C)n(Cc2ccccc2)c2c1cc(O)c1[nH]c3c(c12)CCCC3	18.7 µM
OCCSCCCSCCO	> 100 µM
C=C1C(=O)OC2/C=C(\C)C(O)CC(O)C(C)(O)CC(OC(=O)/C(C)=C/C)C12 (stereo not given)	> 100 µM
Cc1cccc2sc(NC(=O)c3cc([N+](=O)[O-])ccc3Cl)nc12	> 94.2 µM

Qu. Can you look up the measured TGI of "COc1cc(NN=C(c2ccc(O)cc2)c2ccc(O)cc2)c([N+](=O)[O-])cc1[N+](=O)[O-]" for me?
Ans. 33.9 µM

###

Tested on: UACC-62 melanoma
Experiment: NCI tumour cell line growth inhibition, 48 h
Recorded Metric: TGI

# example entries with known answers
N#CCCC(CC#N)N1CCN(CCO)CC1 (stereo not given)	> 100 µM
Cc1ccc(S(=O)(=O)N2CCC3(C(/C=C/c4ccccc4)=Nc4ccccc43)C2c2ccccc2)cc1 (stereo not given)	> 100 µM
Cc1ccc(S(=O)(=O)Oc2ccc3c4c(c(=O)oc3c2)CCCCC4)cc1	> 100 µM
COC(=O)[C@H]1[C@H](C(=O)OC)[C@@H](C)c2c(ccc3c2[nH]c2ccccc23)[C@@H]1C	> 100 µM
CCCCCCCCCCCCCCCCCCNc1ccn(C2OC(COP(=O)(O)O)C(O)C2O)c(=O)n1 (stereo not given)	> 100 µM
COc1cc2c3c(n(CCCN)c(=O)c2cc1OC)-c1ccc(F)cc1C3=O	5.76 µM
CC(C)(C)OC(=O)NCCCCCCCCn1c2c(c3ccccc3c1=O)C(=O)c1ccccc1-2	> 50 µM
CCOc1ccccc1NC(=O)CCc1nnc2s/c(=C\CCc3ccccc3)c(=O)n12	> 100 µM

Qu. Recall the recorded TGI for "O=C(CSc1nnc(Cc2ccccc2)o1)Nc1ccc(Cl)cc1" with UACC-62 melanoma and state it.
Ans. > 100 µM

Qu. Recall the recorded TGI for "COc1ccc2cc(C(=O)/C=C/c3cccc(Cl)c3Cl)ccc2c1" with UACC-62 melanoma and state it.
Ans. 28.4 µM

###

# TGI per record follows
Tested on: NCI-H23 lung
Experiment: NCI tumour cell line growth inhibition, 48 h

CC(C)CCCC(C)[C@H]1CC[C@H]2[C@@H]3CC[C@H]4C[C@@H](CCC=C(c5cc(Cl)c(O)c(C(=O)OC(C)(C)C)c5)c5cc(Cl)c(O)c(C(=O)OC(C)(C)C)c5)CC[C@]4(C)[C@H]3CC[C@]12C (stereo partly specified)	> 50 µM

Qu. Can you look up the measured TGI of "COc1cccc(/C=C/C(=O)c2ccc(Cl)cc2Cl)c1OC" for me?
Ans. 26.6 µM

Qu. Can you look up the measured TGI of "CC(C)(C)OC(=O)NCCCCCCCCn1c2c(c3ccccc3c1=O)C(=O)c1ccccc1-2" for me?
Ans. > 50 µM

Qu. Can you look up the measured TGI of "CCc1cccc(CC)c1NC(=S)NC(=O)c1ccc(Br)cc1" for me?
Ans. > 100 µM

Qu. Can you look up the measured TGI of "CC(=O)O[C@H]1[C@@H]2[C@@H]3[C@@H](C[C@H]1C)[C@@H](C)CO[C@@]1(C)CC/C=C(/C)C[C@@H]2O[C@@H]31" for me?
Ans. > 100 µM

Qu. Can you look up the measured TGI of "O=C(O)c1c(-c2c3ccc(=O)cc-3oc3cc(O)ccc23)cc2ccccc2c1-c1ccccc1" for me?
Ans. > 100 µM

Qu. Can you look up the measured TGI of "Cc1ccc(NS(=O)(=O)c2cc(C(C)(C)C)ccc2OCCOCCOCCOc2ccc(C(C)(C)C)cc2S(=O)(=O)Nc2ccc(C)cc2)cc1" for me?
Ans. > 100 µM

Qu. Can you look up the measured TGI of "COc1ccc(-c2cnc(-c3ccc(F)cc3)[nH]2)cc1" for me?
Ans. 46.6 µM

###

# TGI per record follows
Tested on: MALME-3M melanoma
Experiment: NCI tumour cell line growth inhibition, 48 h
Give just the numeric value; µM need not be written.

# example entries with known answers
CC(CN)[C@@H]1CC[C@]2(CO)CC[C@]3(C)[C@H](CC[C@@H]4[C@@]5(C)CCC(NCCO)C(C)(C)[C@@H]5CC[C@]43C)[C@@H]12 (some centres undefined)	3.16
N#CC1C(=O)Nc2sc(C(=O)c3ccc(Br)cc3)c(N)c2C12CCCCC2 (centres undefined)	84.2
Cn1ccc(=Nc2ccc(NC(=O)c3ccc(N=c4ccn(C)c5ccc([N+](=O)[O-])cc45)cc3)cc2)cc1	37.9
CC[C@@]1(O)C(=O)OCc2c1cc1n(c2=O)Cc2cc3cc(OC)ccc3nc2-1	0.548
COC(=O)C(NC(=O)CNC(=O)CSc1nnc(COc2ccc(Cl)cc2)n1-c1ccccc1)C(C)C (centres undefined)	35.5
C=CCN1C(=O)/C(=C/c2ccc(C)cc2)N=C1SC/C=C/C	93.4
C=C(CNCCc1ccc(O)cc1)[C@@H]1CC[C@]2(CO)CC[C@]3(C)[C@H](CC[C@@H]4[C@@]5(C)CCC(=O)C(C)(C)[C@@H]5CC[C@]43C)[C@@H]12	3.25
COc1ncc(-c2nc3c(n2C(C)C)[C@H](c2ccc(Cl)cc2)N(c2cc(Cl)cn(C)c2=O)C3=O)c(OC)n1	59.3
CC(SC(=S)N1CCCCC1)C(=O)Nc1nnc(-c2ccc(Cl)cc2)o1 (centres undefined)	72.6
COc1cc2c3c(n(CCCN4CCN(C)CC4)c(=O)c2cc1OC)-c1cc2c(cc1C3=O)OCO2	42.3

Qu. Can you look up the measured TGI of "CC(=O)Oc1ccn2nc(C)c(Br)c2c1Br" for me?
Ans. 40.6

Qu. Can you look up the measured TGI of O=C(CCCCCCCCC(=O)NN1C(=O)/C(=C\c2ccc(O)c(O)c2)SC1c1c(O)ccc2ccccc12)NN1C(=O)C(=Cc2ccc(O)c(O)c2)SC1c1c(O)ccc2ccccc12 (centres undefined) for me?
Ans. 74

###

Tested on: RPMI-8226 leukemia
Assay: NCI tumour cell line growth inhibition, 48 h; in the data active = GI50 below about 0.43 µM; inactive = the rest
Please state which outcome applies, choosing from active, inactive

Below, 5 compounds whose answers are already recorded.
Cn1ccc(=Nc2ccc(NC(=O)c3ccc(N=c4ccn(C)c5ccc([N+](=O)[O-])cc45)cc3)cc2)cc1	inactive
Cc1cc(S(=O)(=O)Nc2nc3ccsc3c(=O)n2Cc2ccco2)c(S)cc1Cl	inactive
COC(=O)c1c2c(c(C)[n+]([O-])c1C)C(=O)C=C(NCc1cccc(OC)c1)C2=O	inactive
Nc1nc2ccc([C@@H]3Nc4ccc5[nH]ncc5c4[C@H]4[C@H]5CCC(C5)[C@H]43)cc2s1	inactive
COc1cc2c3c(n(CCN)c(=O)c2cc1OC)-c1cc2c(cc1C3=O)OCO2	active

Consider the record given below.
Qu. Fill in: this test's call for CC(CN)[C@@H]1CC[C@]2(CO)CC[C@]3(C)[C@H](CC[C@@H]4[C@@]5(C)CCC(NCCO)C(C)(C)[C@@H]5CC[C@]43C)[C@@H]12 (stereo partly specified) is ___
Ans. inactive

###

Test system: SF-268 CNS
Assay: NCI tumour cell line growth inhibition, 48 h; in the data active = GI50 below about 0.43 µM; inactive = the rest
Please state which outcome applies, choosing from active, inactive

Below, 3 compounds whose answers are already recorded.
CN1CCN(CC(=O)Nc2ccc3ncnc(Nc4ccc(Oc5cccc(C(F)(F)F)c5)c(Cl)c4)c3c2)CC1	inactive
C/C=C(\C)C(=O)O[C@@H]1C(O)[C@H]2OC(COC(=O)CCC(=O)CCCCCC[C@H](CCCCC)O[C@@H]3OC(C)[C@H](OC(C)=O)C(O)[C@H]3O2)[C@H]1OC(=O)/C=C/c1ccccc1 (some centres undefined)	active
Nc1nc2ccc([C@@H]3Nc4ccc5[nH]ncc5c4[C@H]4[C@H]5CCC(C5)[C@H]43)cc2s1	inactive

Qu. Fill in: this test's call for "COc1ccc(/C=C(/C(=O)N2CCCC2)c2cc(OC)c(OC)c(OC)c2)cc1N" is ___
Ans. inactive

###

Test system: NCI/ADR-RES ovarian
Test: NCI tumour cell line growth inhibition, 48 h
Recorded Metric: TGI

# example entries with known answers
Cn1c(C(C#N)c2cc(Cl)ncn2)nc2ccccc21 (centres undefined)	> 100 µM
N#CCCC(CC#N)N1CCN(CCO)CC1 (centres undefined)	> 100 µM
N#C/C(=C/C=C(\Cl)c1ccc(Cl)cc1)C(N)=O	7.43 µM
c1ccc2c(c1)CCc1c-2n(CCN2CCCCC2)c2ccccc12	33.1 µM
COC(=O)[C@@H]1c2cc3c(c(O)c2[C@@H](OC)C[C@@]1(C)O)C(=O)c1c(O)cc2c(c1C3=O)OC1O[C@@]2(C)[C@H](O)[C@@H](N(C)C)[C@@H]1O	4.22 µM
[Cl-].[Rh+3].c1ccc(-c2ccnc3c2ccc2c(-c4ccccc4)ccnc23)cc1.c1ccc(-c2ccnc3c2ccc2c(-c4ccccc4)ccnc23)cc1.c1ccc(-c2ccnc3c2ccc2c(-c4ccccc4)ccnc23)cc1	> 100 µM
C=C(CN1CCN(c2cccc(C(F)(F)F)c2)CC1)c1ccc(C(=O)Nc2ccccc2N)cc1	> 50 µM
O=C(O)CCC1COc2ccccc2O1 (centres undefined)	> 10 µM

Query compound follows.
Qu. Recall the recorded TGI for CC(SC(=S)N1CCCCC1)C(=O)Nc1nnc(-c2ccc(Cl)cc2)o1 (centres undefined) with NCI/ADR-RES ovarian and state it.
Ans. > 100 µM
